experiment: Beagle PK evaluation experiment; format: in vivo; settings: dog, plasma, po (gavage), dose 1 mg/kg, n=3, median, read-out: Tmax po (time to maximum plasma concentration)
ASSAY METRIC: Tmax (h)
Give bare numbers, in h.

COMPOUND: CC(C)n1cc(-c2ccc(F)cc2)c(=O)c(C(=O)Nc2ccc(Oc3ccnc(N)c3Cl)cn2)n1 [Compound 11]
Tmax [h]: 1
--
COMPOUND: CC(C)n1cc(-c2ccc(F)cc2)c(=O)c(C(=O)Nc2ncc(Oc3ccnc(N)c3Cl)cn2)n1 [Compound 12]
Tmax [h]: 0.5
--
COMPOUND: C=CCn1cc(-c2ccc(F)cc2)c(=O)c(C(=O)Nc2ncc(Oc3ccnc(N)c3Cl)cn2)n1 [Compound 37]
Tmax [h]: 0.5
--
COMPOUND: Nc1nccc(Oc2cnc(NC(=O)c3nn(C4CC4)cc(-c4ccc(F)cc4)c3=O)nc2)c1Cl [Compound 18]
Tmax [h]: 1

Below is a list of compounds. For each, state its recorded Tmax.
1. Nc1nccc(Oc2ccc(NC(=O)c3nn(C4CC4)cc(-c4ccc(F)cc4)c3=O)nc2)c1Cl [Compound 17]
2. C=CCn1cc(-c2ccc(F)cc2)c(=O)c(C(=O)Nc2ccc(Oc3ccnc(N)c3Cl)cn2)n1 [Compound 35]

Response line:
1
1

---

target: UniProt P30530
pIC50: −log10 of the molar value.
Outcome: 1 for pIC50 of at least 8; 0 for anything lower.

COMPOUND: C=CCn1cc(-c2ccc(F)cc2)c(=O)c(C(=O)Nc2ccc(Oc3ccnc(N)c3Cl)cn2)n1 [Compound 35]
CLASS: 1

Prompt line: Does the reported pIC50 for CC(C)n1cc(C(=O)Nc2ccc(Oc3ccnc(N)c3Cl)nc2)c(=O)c(-c2ccc(F)cc2)n1 [Compound 23] fall at or above the 8 mark?
Response line: 0

---

test: Beagle PK evaluation experiment; type: in vivo; conditions: dog, plasma, iv, dose 1 mg/kg, n=3, read-out: tz1/2 iv (terminal half-life) (converted)
Note to self: use Satisfied only for half-life readings below 7 h; a reading exactly at 7 h still gets Not satisfied.

# count of solved cases: 5
COMPOUND: CC(C)n1cc(-c2ccc(F)cc2)c(=O)c(C(=O)Nc2ccc(Oc3ccnc(N)c3Cl)cn2)n1 [Compound 11]
CLASS: Not satisfied
--
COMPOUND: C=CCn1cc(-c2ccc(F)cc2)c(=O)c(C(=O)Nc2ncc(Oc3ccnc(N)c3Cl)cn2)n1 [Compound 37]
CLASS: Satisfied
--
COMPOUND: CC(C)n1cc(-c2ccc(F)cc2)c(=O)c(C(=O)Nc2ncc(Oc3ccnc(N)c3Cl)cn2)n1 [Compound 12]
CLASS: Satisfied
--
COMPOUND: C=CCn1cc(-c2ccc(F)cc2)c(=O)c(C(=O)Nc2ccc(Oc3ccnc(N)c3Cl)cn2)n1 [Compound 35]
CLASS: Not satisfied
--
COMPOUND: Nc1nccc(Oc2ccc(NC(=O)c3nn(C4CC4)cc(-c4ccc(F)cc4)c3=O)nc2)c1Cl [Compound 17]
CLASS: Not satisfied

Prompt line: Please indicate whether the reported half-life of Nc1nccc(Oc2cnc(NC(=O)c3nn(C4CC4)cc(-c4ccc(F)cc4)c3=O)nc2)c1Cl [Compound 18] is strictly below 7 h.
Response line: Satisfied

---

assay: Beagle PK evaluation experiment; assay type: in vivo; settings: dog, plasma, po (gavage), dose 1 mg/kg, n=3, read-out: AUClast po (area under concentration-time curve for 0-24 h)
ASSAY METRIC: AUC(0-t) (ng·h/mL)
Answers are plain numbers, in ng·h/mL.

Some solved cases for reference:
MOL: C=CCn1cc(-c2ccc(F)cc2)c(=O)c(C(=O)Nc2ncc(Oc3ccnc(N)c3Cl)cn2)n1
EXPERIMENTAL VALUE: 1830
//
MOL: Nc1nccc(Oc2ccc(NC(=O)c3nn(C4CC4)cc(-c4ccc(F)cc4)c3=O)nc2)c1Cl
EXPERIMENTAL VALUE: 3670
//
MOL: Nc1nccc(Oc2cnc(NC(=O)c3nn(C4CC4)cc(-c4ccc(F)cc4)c3=O)nc2)c1Cl
EXPERIMENTAL VALUE: 1090
//
MOL: C=CCn1cc(-c2ccc(F)cc2)c(=O)c(C(=O)Nc2ccc(Oc3ccnc(N)c3Cl)cn2)n1
EXPERIMENTAL VALUE: 2200
//
MOL: CC(C)n1cc(-c2ccc(F)cc2)c(=O)c(C(=O)Nc2ncc(Oc3ccnc(N)c3Cl)cn2)n1
EXPERIMENTAL VALUE: 1190

Query compound follows.
Prompt line: Give the value of AUC(0-t) reported for the following: "CC(C)n1cc(-c2ccc(F)cc2)c(=O)c(C(=O)Nc2ccc(Oc3ccnc(N)c3Cl)cn2)n1"
Response line: 1360

---

Consider compounds characterized by their IC50 with Axl (h) (Homo sapiens, UniProt P30530).
Sequence (P30530 26-894): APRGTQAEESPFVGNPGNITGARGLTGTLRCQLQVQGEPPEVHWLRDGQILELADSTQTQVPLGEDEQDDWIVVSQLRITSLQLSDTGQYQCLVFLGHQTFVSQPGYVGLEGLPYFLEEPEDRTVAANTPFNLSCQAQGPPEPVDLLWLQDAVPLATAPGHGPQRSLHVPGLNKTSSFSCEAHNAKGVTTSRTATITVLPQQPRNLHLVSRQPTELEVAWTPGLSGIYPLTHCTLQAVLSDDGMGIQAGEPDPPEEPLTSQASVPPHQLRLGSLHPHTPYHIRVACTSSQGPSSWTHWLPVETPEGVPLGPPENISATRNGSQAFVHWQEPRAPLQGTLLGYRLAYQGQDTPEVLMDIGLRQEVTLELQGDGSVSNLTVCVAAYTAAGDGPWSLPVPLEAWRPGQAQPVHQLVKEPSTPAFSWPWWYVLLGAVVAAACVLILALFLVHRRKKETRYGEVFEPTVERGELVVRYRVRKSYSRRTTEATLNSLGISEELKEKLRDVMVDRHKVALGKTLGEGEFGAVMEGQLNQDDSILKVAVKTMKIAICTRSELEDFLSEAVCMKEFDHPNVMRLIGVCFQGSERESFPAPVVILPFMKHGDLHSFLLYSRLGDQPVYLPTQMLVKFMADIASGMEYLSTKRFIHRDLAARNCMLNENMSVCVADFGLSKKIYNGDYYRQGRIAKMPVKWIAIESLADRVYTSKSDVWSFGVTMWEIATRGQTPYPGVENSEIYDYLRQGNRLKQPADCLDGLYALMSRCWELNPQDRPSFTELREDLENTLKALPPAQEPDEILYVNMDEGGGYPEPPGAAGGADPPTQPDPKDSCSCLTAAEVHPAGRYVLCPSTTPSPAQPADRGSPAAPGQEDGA
One number for each entry, in nM.

Consider the worked cases shown below.
MOL: C=CCn1cc(-c2ccc(F)cc2)c(=O)c(C(=O)Nc2ncc(Oc3ccnc(N)c3Cl)cn2)n1
UNIT NAME: nM
EXPERIMENTAL VALUE: 9
--
MOL: CC(C)n1cc(-c2ccc(F)cc2)c(=O)c(C(=O)Nc2cnc(Oc3ccnc(N)c3Cl)nc2)n1
UNIT NAME: nM
EXPERIMENTAL VALUE: 16
--
MOL: C=CCn1cc(-c2ccc(F)cc2)c(=O)c(C(=O)Nc2ccc(Oc3ccnc(N)c3Cl)nc2)n1
UNIT NAME: nM
EXPERIMENTAL VALUE: 12
--
MOL: Nc1nccc(Oc2cnc(NC(=O)c3nn(C4CC4)cc(-c4ccc(F)cc4)c3=O)nc2)c1Cl
UNIT NAME: nM
EXPERIMENTAL VALUE: 8

Next item in the queue.
Prompt line: Supply reported IC50 belonging to this compound: "CC(C)n1cc(-c2ccc(F)cc2)c(=O)c(C(=O)Nc2ccc(Oc3ccnc(N)c3Cl)cn2)n1"
Response line: 6
